# Test system: TOV112D
# PROTOCOL_TEXT: Antiproliferative activity against human TOV112D cells after 72 hrs by BrdUrd incorporation assay
# Type: functional, cell-based
pIC50: −log10 of the molar value.
pIC50 values, listed per item
READOUT_NAME: pIC50

CHEMICAL_STRING	READOUT_NAME	REPORTED_VALUE
Cc1ccccc1N1CCn2c1nnc(-c1cccs1)c2=O	pIC50	4.10
O=c1c(-c2cccs2)nnc2n1CCN2c1cccc(Cl)c1	pIC50	4.10
O=c1c(-c2cccs2)nnc2n1CCN2c1ccc(Cl)c(Cl)c1	pIC50	4.15

====

Below, each of the molecules is paired with its reported inhibition of growth at 50 µg/mL value.
# Test system: HeLa
# PROTOCOL_TEXT: Antiproliferative activity against human HeLa cells at 50 ug/ml after 72 hrs by BrdUrd incorporation assay
# Type: functional
# DETAILS: read-out: GI
READOUT_NAME: inhibition of growth at 50 µg/mL (%)

CHEMICAL_STRING	READOUT_UNITS	REPORTED_VALUE
O=c1c(-c2ccco2)nnc2n1CCN2c1cccc(Cl)c1	%	95
O=c1c(-c2ccco2)nnc2n1CCN2c1ccccc1Cl	%	100
O=c1c(-c2ccco2)nnc2n1CCN2c1ccc(Cl)cc1	%	90
COc1ccccc1N1CCn2c1nnc(-c1cccs1)c2=O	%	80
Cc1ccc(N2CCn3c2nnc(-c2ccco2)c3=O)cc1	%	80
Cc1ccccc1N1CCn2c1nnc(-c1cccs1)c2=O	%	90
Cc1cccc(N2CCn3c2nnc(-c2cccs2)c3=O)c1C	%	75
O=c1c(-c2cccs2)nnc2n1CCN2c1ccccc1	%	100
Cc1ccccc1N1CCn2c1nnc(-c1ccco1)c2=O	%	50
O=c1c(-c2ccco2)nnc2n1CCN2c1ccccc1	%	100
O=c1c(-c2ccco2)nnc2n1CCN2c1ccc(Cl)c(Cl)c1	%	95
O=c1c(-c2cccs2)nnc2n1CCN2c1cccc(Cl)c1	%	100
Cc1cccc(N2CCn3c2nnc(-c2ccco2)c3=O)c1C	%	90
COc1ccccc1N1CCn2c1nnc(-c1ccco1)c2=O	%	80
O=c1c(-c2cccs2)nnc2n1CCN2c1ccc(Cl)c(Cl)c1	%	100
O=c1c(-c2cccs2)nnc2n1CCN2c1ccc(Cl)cc1	%	100
O=c1c(-c2cccs2)nnc2n1CCN2c1ccccc1Cl	%	90
Cc1ccc(N2CCn3c2nnc(-c2cccs2)c3=O)cc1	%	100

====

# Tested on: T47D
# PROTOCOL_TEXT: Antiproliferative activity against human T47D cells at 50 ug/ml after 72 hrs by BrdUrd incorporation assay
# Format: functional
# DETAILS: read-out: GI

CHEMICAL_STRING	inhibition of growth at 50 µg/mL, %
Cc1ccccc1N1CCn2c1nnc(-c1ccco1)c2=O	75
O=c1c(-c2ccco2)nnc2n1CCN2c1ccccc1	95
O=c1c(-c2cccs2)nnc2n1CCN2c1ccc(Cl)c(Cl)c1	100
Cc1ccccc1N1CCn2c1nnc(-c1cccs1)c2=O	100
COc1ccccc1N1CCn2c1nnc(-c1ccco1)c2=O	70
O=c1c(-c2ccco2)nnc2n1CCN2c1ccccc1Cl	25
COc1ccccc1N1CCn2c1nnc(-c1cccs1)c2=O	95
O=c1c(-c2cccs2)nnc2n1CCN2c1ccc(Cl)cc1	100
Cc1ccc(N2CCn3c2nnc(-c2cccs2)c3=O)cc1	100
Cc1ccc(N2CCn3c2nnc(-c2ccco2)c3=O)cc1	80
O=c1c(-c2ccco2)nnc2n1CCN2c1ccc(Cl)cc1	15
O=c1c(-c2ccco2)nnc2n1CCN2c1cccc(Cl)c1	80
O=c1c(-c2cccs2)nnc2n1CCN2c1cccc(Cl)c1	100
O=c1c(-c2cccs2)nnc2n1CCN2c1ccccc1	100
Cc1cccc(N2CCn3c2nnc(-c2cccs2)c3=O)c1C	100
O=c1c(-c2cccs2)nnc2n1CCN2c1ccccc1Cl	100
Cc1cccc(N2CCn3c2nnc(-c2ccco2)c3=O)c1C	25
O=c1c(-c2ccco2)nnc2n1CCN2c1ccc(Cl)c(Cl)c1	40
